Reported OD450 values for a set of binders
Molecular target: T1, Cynomolgus monkey NKp46 for immunization, screening, and testing (Kactus, NKP-CM146) (cynomolgus monkey, UniProt Q95JB9 22-254)
T1 construct: Bought protein; also called monkey NKp46 antigen protein; cynomolgus monkey NKp46 antigen
T1 sequence (Q95JB9 other isoform, or with tags, fused parts or gaps limits assumed): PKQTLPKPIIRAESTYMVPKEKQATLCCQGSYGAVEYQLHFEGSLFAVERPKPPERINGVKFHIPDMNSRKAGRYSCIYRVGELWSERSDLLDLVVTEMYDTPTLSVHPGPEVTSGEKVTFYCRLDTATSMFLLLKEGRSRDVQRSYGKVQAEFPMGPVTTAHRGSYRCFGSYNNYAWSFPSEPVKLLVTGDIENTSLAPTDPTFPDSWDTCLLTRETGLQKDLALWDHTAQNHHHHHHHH
Assay: ELISA, coated antigen, VHH supernatant, anti-Myc HRP
Description: In order to obtain positive antibodies that can cross-bind to human NKp46 and cynomolgus monkey NKp46, the above libraries were amplified and added into M13K07 helper phage and assembled into bacteriophages. 1×10¹² pfu of immune camel antibody library and immune alpaca antibody library were added thereto, and the phages were incubated with biotinylated human NKp46 protein (8 μg/mL) bound to magnetic beads for 1 h at room temperature. […]

NKp46-PA45 VHH (his and c-Myc labels) (VHH, IPTG-induced E. coli supernatant used in the screening ELISA; also called NKp46-PA45 clone supernatant; not shown: his and c-Myc labels) VHH: QVQLVESGGGLVQAGGSLRLLCAASGRTFSRLPMAWFRQGPGKDREFVAAISWSGGSTYYADSMKGRFTISRDNAKNTAYLQMNSLRLEDTAVYYCAAVGDSAPYSATIVYTDARAYAYWGQGTQVTVSS
> 1

In the following, a different binder is considered.
Provide only the value of recorded OD450 for NKp46-PC9 VHH (his and c-Myc labels) (VHH, IPTG-induced E. coli supernatant used in the screening ELISA; also called NKp46-PC9 clone supernatant; not shown: his and c-Myc labels) VHH: QVQLVESGGGSVQAGGSLRLSCAASGYTYRRYCMAWFRQGPGKEREGVACLDRDGSTTYADSVKGRFTISRDNANDTLYLQMNSLKPEDTALYRCAAAQPGDCWGRRYGFNTWGQGTLVTVSS
> 1
